# assayedTarget: LasB elastase (dialysed supernatant from P. aeruginosa PAO1) (Pseudomonas aeruginosa, UniProt P14756)
# Construct: Culture supernatants are recovered by centrifugation and filtrated through a 0.22 μM filter; endogenous in cells; host or cells: P. aeruginosa PAO1 culture supernatant, dialysed
# Sequence (P14756 198-498): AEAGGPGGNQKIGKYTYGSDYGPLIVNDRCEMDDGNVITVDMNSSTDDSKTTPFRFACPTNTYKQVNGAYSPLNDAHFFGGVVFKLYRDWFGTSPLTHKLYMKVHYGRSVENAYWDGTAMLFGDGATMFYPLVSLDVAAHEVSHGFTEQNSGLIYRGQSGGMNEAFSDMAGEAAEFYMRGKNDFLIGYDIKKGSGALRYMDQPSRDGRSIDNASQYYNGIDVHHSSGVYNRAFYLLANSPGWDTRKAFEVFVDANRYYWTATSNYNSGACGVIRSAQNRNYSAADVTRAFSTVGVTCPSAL
# assayComment: Elastin assay to determine % inhibition (Elastin Congo-Red, dialysed PAO1 supernatant)
# Assay type: biochemical
# runConditions: read-out: Elastin hydrolysis % inhibition @ 50/25 μM inhibitor concentration
Could you please report measured inhibition at 25 µM for the items listed next?

Recorded inhibition at 25 µM of CCCOc1ccc2nc(CNC(=O)C3(CC(=O)O)Cc4ccccc4C3)sc2c1 [Example 2] , please.
> 75%

Another compound to check: COc1cc2sc(CNC(=O)C3(CC(=O)[O-])Cc4ccccc4C3)nc2cc1OCCC[N+](C)(C)C [Example 4]
> 75%

Another compound to check: COc1cc2sc(CNC(=O)C3(CC(=O)[O-])Cc4ccccc4C3)nc2cc1OCCOCC[N+](C)(C)C [Example 5]
60 to 75%

* * *

# assayedTarget: LasB elastase (dialysed supernatant from P. aeruginosa PAO1) (Pseudomonas aeruginosa)
# Construct: Culture supernatants are recovered by centrifugation and filtrated through a 0.22 μM filter; endogenous in cells; host or cells: P. aeruginosa PAO1 culture supernatant, dialysed
# assayComment: Elastin assay to determine % inhibition (Elastin Congo-Red, dialysed PAO1 supernatant)
# Assay type: biochemical
# runConditions: read-out: Elastin hydrolysis % inhibition @ 50/25 μM inhibitor concentration
recordedMetric: inhibition at 25 µM

Recorded inhibition at 25 µM of COc1cc2sc(CNC(=O)C3(CC(=O)O)Cc4ccccc4C3)nc2cc1OCCCN(C)C , please.
> 75%

Another molecule to check: O=C(O)CC1(C(=O)NCc2nc3ccc(OCCCO)cc3s2)Cc2ccccc2C1
> 75%

Another molecule to check: COc1cc2sc(CNC(=O)C3(CC(=O)[O-])Cc4cc(F)c(F)cc4C3)nc2cc1OCCOCC[N+](C)(C)C
> 75%

Another molecule to check: COc1cc2sc(CNC(=O)C3(CC(=O)[O-])Cc4cc(F)c(F)cc4C3)nc2cc1OCC[N+](C)(C)C
60 to 75%
